target.of.assay: Fatty-acid amide hydrolase 1 (Rattus norvegicus, UniProt P97612)
Sequence (P97612 whole entry): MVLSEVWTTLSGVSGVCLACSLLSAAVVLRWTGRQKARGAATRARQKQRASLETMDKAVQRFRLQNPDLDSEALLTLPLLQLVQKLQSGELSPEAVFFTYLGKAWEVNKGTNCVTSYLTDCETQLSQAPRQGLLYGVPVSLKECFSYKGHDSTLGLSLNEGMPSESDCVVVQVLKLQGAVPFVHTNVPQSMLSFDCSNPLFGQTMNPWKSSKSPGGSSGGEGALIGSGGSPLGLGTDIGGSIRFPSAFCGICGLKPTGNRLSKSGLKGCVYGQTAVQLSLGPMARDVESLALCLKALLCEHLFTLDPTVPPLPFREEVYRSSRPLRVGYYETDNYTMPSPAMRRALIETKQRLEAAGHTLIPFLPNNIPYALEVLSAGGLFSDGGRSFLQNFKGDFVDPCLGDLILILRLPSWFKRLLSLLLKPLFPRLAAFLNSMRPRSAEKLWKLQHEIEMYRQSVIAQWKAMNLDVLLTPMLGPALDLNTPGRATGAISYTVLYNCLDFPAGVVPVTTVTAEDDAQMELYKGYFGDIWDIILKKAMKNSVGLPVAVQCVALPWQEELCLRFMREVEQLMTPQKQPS
pKi: −log10 of the molar value.
Listing of entries alongside the reported pKi.
readout.label: pKi

| smiles.record | target.of.assay | assay.value |
| --- | --- | --- |
| CCCCCCCC/C=C\CCCCCCCC(=O)C(F)(F)F | Fatty-acid amide hydrolase 1 (Rattus norvegicus, UniProt P97612) | 7.09 |
| CCCCCCc1cccc(CCCCCCC(=O)C(F)(F)F)c1 | Fatty-acid amide hydrolase 1 (Rattus norvegicus, UniProt P97612) | 6.85 |
| CCCCOC[C@@H]1CCCC[C@H]1COCCCC(=O)C(F)(F)F | Fatty-acid amide hydrolase 1 (Rattus norvegicus, UniProt P97612) | 5.92 |
| CCCCCCCCCCCC(=O)C(F)(F)F | Fatty-acid amide hydrolase 1 (Rattus norvegicus, UniProt P97612) | 6.85 |
| CCCCCCCCc1ccccc1CCCCCCCC(=O)C(F)(F)F | Fatty-acid amide hydrolase 1 (Rattus norvegicus, UniProt P97612) | 6.49 |
| CCCCOC[C@@H]1CC=CC[C@H]1COCCCC(=O)C(F)(F)F | Fatty-acid amide hydrolase 1 (Rattus norvegicus, UniProt P97612) | 6.36 |
| CCCCOC[C@H]1CCCC[C@H]1COCCCC(=O)C(F)(F)F | Fatty-acid amide hydrolase 1 (Rattus norvegicus, UniProt P97612) | 6.11 |
| CCCCCCCC(=O)C(F)(F)F | Fatty-acid amide hydrolase 1 (Rattus norvegicus, UniProt P97612) | 5.92 |
| CCCCCCCCCCCCCCCCCC(=O)C(F)(F)F | Fatty-acid amide hydrolase 1 (Rattus norvegicus, UniProt P97612) | 6.62 |
| CCCCCCCC/C=C/CCCCCCCC(=O)C(F)(F)F | Fatty-acid amide hydrolase 1 (Rattus norvegicus, UniProt P97612) | 6.77 |
| O=C(CCCCCCCc1ccccc1)C(F)(F)F | Fatty-acid amide hydrolase 1 (Rattus norvegicus, UniProt P97612) | 7.60 |
| CCCCCCCc1ccc(CCCCCCC(=O)C(F)(F)F)cc1 | Fatty-acid amide hydrolase 1 (Rattus norvegicus, UniProt P97612) | 7.02 |
